- Test system: HL-1
- Test description: relative cell viability (CellTiter-Glo) vs DMSO control (% of DMSO control); higher = more viable cells
- Experimental parameters: oxygen condition: hypoxia 48 h (1% O2) + reoxygenation 24 h; 200 nM
Can you tell me relative cell viability for the items I'm about to list?

Entry CNC1CCCN(c2c(F)cc3c(=O)c(C(=O)O)cn(C4CC4)c3c2OC)C1 (stereo not drawn) : reported relative cell viability = ?
93.5

Entry Cc1[nH]c(=O)c(C#N)cc1-c1ccncc1 : reported relative cell viability = ?
106

Entry C[C@@]12C[C@@]3(O)O[C@@H](O1)[C@]1(COC(=O)c4ccccc4)[C@H]3C[C@@]12O[C@@H]1O[C@H](CO)[C@@H](O)[C@H](O)[C@H]1O : reported relative cell viability = ?
102
